Collected binding signal values appear next to each entry.
Target: T1, RBFOX1 RRM RbFoxmut (Fox-RRM*) (Homo sapiens, UniProt Q9NWB1 109-208, R118D;E147R;N151S;E152T)
T1 sequence: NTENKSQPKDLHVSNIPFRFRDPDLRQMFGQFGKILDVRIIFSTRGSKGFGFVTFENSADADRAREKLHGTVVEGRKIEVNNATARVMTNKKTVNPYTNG
Experiment: EMSA; HiTS-Eq, 1 nM pool, 10 min; buffer printed only for the single-RNA assays: 10 mM Tris pH 7.5, 150 mM NaCl, 3.4 mM EDTA, 0.001% NP-40, 30 C
Settings: tags: His6 N-terminal (pET28a); label: 5' 32P
In all, about 16,000 sequences were measured (“ka relative to ugcaugu”: median about 0.096, highest 2% from about 0.35 on). The entries come from a sample that favours the highest values as a whole.

Query: Return reported binding signal. Input binder: GUGGUGG (DNA:RNA) RNA: GGGAGACCGGAAUUCAGAUUGUCCGUGGUGGUUAAAUCCCGUCGUAGCCACCA DNA 1: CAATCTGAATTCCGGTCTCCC DNA 2: TGGTGGCTACGACGGGATT
Response: 0.15 KA relative to UGCAUGU

Query: Return reported binding signal. Input binder: UCCUUGG (DNA:RNA) RNA: GGGAGACCGGAAUUCAGAUUGUCCUCCUUGGUUAAAUCCCGUCGUAGCCACCA DNA 1: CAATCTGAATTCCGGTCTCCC DNA 2: TGGTGGCTACGACGGGATT
Response: 0.0776 KA relative to UGCAUGU
